tested on: EMT6; assay: Biodistribution in tumor of mouse EMT6 tumor bearing BALB/c mouse at 10 to 20 uCi after 60 mins; type: ADME, organism-based; conditions: emt6, 1 h
measureName: Drug uptake (% ID/g)

1) COc1cc2c(cc1OC)CN(CCCCNC(=O)c1cc(C)ccc1OCC[18F])CC2    1.14
2) COc1cc2c(cc1OC)CN(CCCCNC(=O)c1cc(I)ccc1OCC[18F])CC2    2.72
3) COc1cc2c(cc1OC)CN(CCCCNC(=O)c1cc(I)cc(OC)c1OCC[18F])CC2    2.15
4) COc1cc2c(cc1OC)CN(CCCCNC(=O)c1cc(Br)ccc1OCC[18F])CC2    2.09

###

system: Liver; assay: Biodistribution in liver of mouse EMT6 tumor bearing BALB/c mouse at 10 to 20 uCi after 30 mins; format: ADME, organism-based; settings: in vivo, 0.5 h
Each record here notes measured Drug uptake.
measureName: Drug uptake (% ID/g)

1) COc1cc2c(cc1OC)CN(CCCCNC(=O)c1cc(I)cc(OC)c1OCC[18F])CC2    10.73
2) COc1cc2c(cc1OC)CN(CCCCNC(=O)c1cc(C)ccc1OCC[18F])CC2    10.51
3) COc1cc2c(cc1OC)CN(CCCCNC(=O)c1cc(Br)ccc1OCC[18F])CC2    13.12
4) COc1cc2c(cc1OC)CN(CCCCNC(=O)c1cc(I)ccc1OCC[18F])CC2    17.35

###

test system: Bone; assay: Biodistribution in bone of mouse EMT6 tumor bearing BALB/c mouse at 10 to 20 uCi after 120 mins; format: ADME, organism-based, Bone element; details: in vivo, 2 h
measureName: Drug uptake

1. COc1cc2c(cc1OC)CN(CCCCNC(=O)c1cc(C)ccc1OCC[18F])CC2    0.45 % ID/g
2. COc1cc2c(cc1OC)CN(CCCCNC(=O)c1cc(I)ccc1OCC[18F])CC2    1.67 % ID/g
3. COc1cc2c(cc1OC)CN(CCCCNC(=O)c1cc(I)cc(OC)c1OCC[18F])CC2    0.59 % ID/g
4. COc1cc2c(cc1OC)CN(CCCCNC(=O)c1cc(Br)ccc1OCC[18F])CC2    1.28 % ID/g

###

system: Muscle tissue; assay: Biodistribution in muscle of EMT6 tumor bearing BALB/c mouse at 10 to 20 uCi after 5 mins; assay type: ADME, organism-based; settings: in vivo
measureName: Drug uptake (% ID/g)

1) COc1cc2c(cc1OC)CN(CCCCNC(=O)c1cc(I)cc(OC)c1OCC[18F])CC2    2.5
2) COc1cc2c(cc1OC)CN(CCCCNC(=O)c1cc(Br)ccc1OCC[18F])CC2    1.95
3) COc1cc2c(cc1OC)CN(CCCCNC(=O)c1cc(C)ccc1OCC[18F])CC2    1.86
4) COc1cc2c(cc1OC)CN(CCCCNC(=O)c1cc(I)ccc1OCC[18F])CC2    1.52

###

test system: Blood; test: Biodistribution in blood of mouse EMT6 tumor bearing BALB/c mouse at 10 to 20 uCi after 5 mins; format: ADME, organism-based; conditions: in vivo
measureName: Drug uptake (% ID/g)

1. COc1cc2c(cc1OC)CN(CCCCNC(=O)c1cc(I)ccc1OCC[18F])CC2    4.6
2. COc1cc2c(cc1OC)CN(CCCCNC(=O)c1cc(Br)ccc1OCC[18F])CC2    3.57
3. COc1cc2c(cc1OC)CN(CCCCNC(=O)c1cc(C)ccc1OCC[18F])CC2    2.49
4. COc1cc2c(cc1OC)CN(CCCCNC(=O)c1cc(I)cc(OC)c1OCC[18F])CC2    1.82

###

Each record here notes measured Drug uptake.
tested on: Liver; experiment: Biodistribution in liver of mouse EMT6 tumor bearing BALB/c mouse at 10 to 20 uCi after 120 mins; type: ADME, organism-based; settings: in vivo, 2 h
measureName: Drug uptake (% ID/g)

1. COc1cc2c(cc1OC)CN(CCCCNC(=O)c1cc(Br)ccc1OCC[18F])CC2    2.3
2. COc1cc2c(cc1OC)CN(CCCCNC(=O)c1cc(I)cc(OC)c1OCC[18F])CC2    2.61
3. COc1cc2c(cc1OC)CN(CCCCNC(=O)c1cc(C)ccc1OCC[18F])CC2    2.05
4. COc1cc2c(cc1OC)CN(CCCCNC(=O)c1cc(I)ccc1OCC[18F])CC2    4.25

###

system: Blood; experiment: Biodistribution in blood of mouse EMT6 tumor bearing BALB/c mouse at 10 to 20 uCi after 60 mins; assay type: ADME, organism-based; settings: in vivo, 1 h
measureName: Drug uptake (% ID/g)

1) COc1cc2c(cc1OC)CN(CCCCNC(=O)c1cc(C)ccc1OCC[18F])CC2    0.56
2) COc1cc2c(cc1OC)CN(CCCCNC(=O)c1cc(I)ccc1OCC[18F])CC2    3.39
3) COc1cc2c(cc1OC)CN(CCCCNC(=O)c1cc(Br)ccc1OCC[18F])CC2    1.69
4) COc1cc2c(cc1OC)CN(CCCCNC(=O)c1cc(I)cc(OC)c1OCC[18F])CC2    0.65

###

Each record here notes measured Drug uptake.
tested on: Lung; test: Biodistribution in lung of mouse EMT6 tumor bearing BALB/c mouse at 10 to 20 uCi after 120 mins; type: ADME, organism-based; conditions: in vivo, 2 h
measureName: Drug uptake

1) COc1cc2c(cc1OC)CN(CCCCNC(=O)c1cc(C)ccc1OCC[18F])CC2    0.43 % ID/g
2) COc1cc2c(cc1OC)CN(CCCCNC(=O)c1cc(I)ccc1OCC[18F])CC2    1.36 % ID/g
3) COc1cc2c(cc1OC)CN(CCCCNC(=O)c1cc(Br)ccc1OCC[18F])CC2    0.51 % ID/g
4) COc1cc2c(cc1OC)CN(CCCCNC(=O)c1cc(I)cc(OC)c1OCC[18F])CC2    0.74 % ID/g

###

Each record here notes measured Drug uptake.
tested on: Heart; experiment: Biodistribution in heart of mouse EMT6 tumor bearing BALB/c mouse at 10 to 20 uCi after 5 mins; type: ADME, organism-based; settings: in vivo
measureName: Drug uptake (% ID/g)

1. COc1cc2c(cc1OC)CN(CCCCNC(=O)c1cc(Br)ccc1OCC[18F])CC2    3.74
2. COc1cc2c(cc1OC)CN(CCCCNC(=O)c1cc(I)ccc1OCC[18F])CC2    3.22
3. COc1cc2c(cc1OC)CN(CCCCNC(=O)c1cc(I)cc(OC)c1OCC[18F])CC2    5.6
4. COc1cc2c(cc1OC)CN(CCCCNC(=O)c1cc(C)ccc1OCC[18F])CC2    3.73

###

Each record here notes measured Drug uptake.
system: Heart; assay: Biodistribution in heart of mouse EMT6 tumor bearing BALB/c mouse at 10 to 20 uCi after 60 mins; type: ADME, organism-based; conditions: in vivo, 1 h
measureName: Drug uptake (% ID/g)

1. COc1cc2c(cc1OC)CN(CCCCNC(=O)c1cc(I)ccc1OCC[18F])CC2    1.61
2. COc1cc2c(cc1OC)CN(CCCCNC(=O)c1cc(Br)ccc1OCC[18F])CC2    1.04
3. COc1cc2c(cc1OC)CN(CCCCNC(=O)c1cc(I)cc(OC)c1OCC[18F])CC2    0.69
4. COc1cc2c(cc1OC)CN(CCCCNC(=O)c1cc(C)ccc1OCC[18F])CC2    0.55

###

tested on: Brain; assay: Biodistribution in brain of EMT6 tumor bearing BALB/c mouse at 10 to 20 uCi after 30 mins; assay type: ADME, organism-based; settings: in vivo, 0.5 h
Each record here notes measured Drug uptake.
measureName: Drug uptake (% ID/g)

1) COc1cc2c(cc1OC)CN(CCCCNC(=O)c1cc(Br)ccc1OCC[18F])CC2    0.4
2) COc1cc2c(cc1OC)CN(CCCCNC(=O)c1cc(C)ccc1OCC[18F])CC2    0.27
3) COc1cc2c(cc1OC)CN(CCCCNC(=O)c1cc(I)cc(OC)c1OCC[18F])CC2    0.27
4) COc1cc2c(cc1OC)CN(CCCCNC(=O)c1cc(I)ccc1OCC[18F])CC2    0.44

###

system: Adipose tissue; experiment: Biodistribution in fat of mouse EMT6 tumor bearing BALB/c mouse at 10 to 20 uCi after 120 mins; assay type: ADME, organism-based; conditions: in vivo, 2 h
measureName: Drug uptake (% ID/g)

1) COc1cc2c(cc1OC)CN(CCCCNC(=O)c1cc(Br)ccc1OCC[18F])CC2    0.15
2) COc1cc2c(cc1OC)CN(CCCCNC(=O)c1cc(C)ccc1OCC[18F])CC2    0.08
3) COc1cc2c(cc1OC)CN(CCCCNC(=O)c1cc(I)cc(OC)c1OCC[18F])CC2    0.17
4) COc1cc2c(cc1OC)CN(CCCCNC(=O)c1cc(I)ccc1OCC[18F])CC2    0.44
